EXPERIMENT SUMMARY: Tmax in Crl:CD(SD) rat at 10 mg/kg, po administered with solubilized reagent
Assay type: ADME, organism-based
Set-up: dose 10 mg/kg, route oral
RUN PARAMETERS: in vivo
MEASUREMENT NAME: Tmax
Record the result as a number with its unit.

# input Supply reported Tmax belonging to this compound: CC1(C)C[C@@H](c2ccccc2)Nc2c(C(=O)NC34CC5CC(CC(C5)C3)C4)cnn21
# output 40.2 min

###

EXPERIMENT SUMMARY: Mean residence time in Crl:CD(SD) rat at 10 mg/kg, po administered with 0.5% methylcellulose suspension
Format: ADME, organism-based
Design: dose 10 mg/kg, route oral
RUN PARAMETERS: in vivo
MEASUREMENT NAME: MRT
Record the result as a number with its unit.

# input Supply reported MRT belonging to this compound: CC1(C)C[C@@H](c2ccccc2)Nc2c(C(=O)NC34CC5CC(CC(C5)C3)C4)cnn21
# output 4.65 h
